Data provenance: patent US20250161338A1

- Test system: prototrophic yeast strain (CEN.PK113-7D)
- Method summary: Propidium iodide fluorescence-based CLS method in yeast (incl. high-throughput screening);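 further: untreated reference is eight DMSO and water control wells per plate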
- Type: cell-based, Saccharomyces cerevisiae
- Condition context: concentration tested 100 μM; solvent DMSO or water; chronological age point Day 7 (72 h growth = Day 1); lower = more survival
Quantity name: PI intensity

Some entries whose results are on file:
Enquiry: State the recorded PI intensity for this entry: CC(C)CCC[C@@H](C)[C@H]1CC[C@H]2[C@@H]3CC[C@H]4CC(=O)CC[C@]4(C)[C@H]3CC[C@]12C
Return: 62,022.6

Enquiry: State the recorded PI intensity for this entry: NC=O [Formamide]
Return: 64,135.2

Enquiry: State the recorded PI intensity for this entry: CCCCCCCCCCCCCCCC(=O)NCCO
Return: 71,903.7

Next:
Enquiry: State the recorded PI intensity for this entry: Oc1ccc2ccccc2c1
Return: 72,298.9

Enquiry: State the recorded PI intensity for this entry: CC(C(=O)O)c1ccccc1 (stereo not drawn)
Return: 66,998.4

Enquiry: State the recorded PI intensity for this entry: COc1cc2oc(-c3ccc(O)cc3)cc(=O)c2c(O)c1OC
Return: 85,017.1

Enquiry: State the recorded PI intensity for this entry: COc1cc2c(cc1OC)-c1cc3ccc4c(c3c[n+]1CC2)OCO4.[Cl-] [Epiberberine (chloride)]
Return: 38,027.2

Enquiry: State the recorded PI intensity for this entry: CC1(C)[C@@H](O[C@H]2O[C@H](C(=O)[O-])[C@@H](O)[C@H](O)[C@H]2O[C@@H]2O[C@H](C(=O)[O-])[C@@H](O)[C@H](O)[C@H]2O)CC[C@]2(C)[C@H]3C(=O)C=C4[C@@H]5C[C@@](C)(C(=O)O)CC[C@]5(C)CC[C@@]4(C)[C@]3(C)CC[C@@H]12.[K+].[K+] [Dipotassium glycyrrhizinate]
Return: 68,519.8

Enquiry: State the recorded PI intensity for this entry: O=C(/C=C/c1ccc(O)c(O)c1)O[C@H]1[C@H](O)C[C@](O)(C(=O)O)C[C@H]1O
Return: 65,040.0

----------
- System: prototrophic yeast strain (CEN.PK113-7D)
- Method summary: Propidium iodide fluorescence-based CLS method in yeast (incl. high-throughput screening);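 further: untreated reference is eight DMSO and water control wells per plate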
- Assay type: cell-based, Saccharomyces cerevisiae
- Condition context: concentration tested 100 μM; solvent DMSO or water; chronological age point Day 7 (72 h growth = Day 1); lower = more survival
Counter-ions that a name gives are not always drawn.
Quantity name: PI intensity

Enquiry: State the recorded PI intensity for this entry: CCCCC[C@H](CC(=O)NO)C(=O)N[C@H](C(=O)N1CCC[C@H]1CO)C(C)C [Actinonin]
Return: 75,254.2

Enquiry: State the recorded PI intensity for this entry: COCCCOc1cc(C[C@@H](C[C@H](N)[C@@H](O)C[C@H](C(=O)NCC(C)(C)C(N)=O)C(C)C)C(C)C)ccc1OC.COCCCOc1cc(C[C@@H](C[C@H](N)[C@@H](O)C[C@H](C(=O)NCC(C)(C)C(N)=O)C(C)C)C(C)C)ccc1OC.O=C(O)/C=C/C(=O)O [Aliskiren (hemiumarate), reference compound]
Return: 73,607.3

Enquiry: State the recorded PI intensity for this entry: Cn1cc(C(N)=O)ccc1=O [Nudifloramide]
Return: 65,023.3

Enquiry: State the recorded PI intensity for this entry: CCCC(=O)C(=O)O [2-Oxovaleric acid]
Return: 61,246.4

Enquiry: State the recorded PI intensity for this entry: Nc1nccc(=O)[nH]1 [Isocytosine]
Return: 68,813.6

Next:
Enquiry: State the recorded PI intensity for this entry: COC(=O)CC(C)=O [Methyl acetylacetate]
Return: 64,956.3

Enquiry: State the recorded PI intensity for this entry: CCc1ccc(O)cc1 [4-Ethylphenol]
Return: 58,041.7

Enquiry: State the recorded PI intensity for this entry: Nc1c(Br)cc(Br)cc1CN[C@H]1CC[C@H](O)CC1 [Ambroxol (hydrochloride), reference compound]
Return: 63,509.0
